Target: Human GLP-1 receptor (Homo sapiens)
Construct: The full-length cDNA was cloned in pcDNA3.1(+); expressed in transfected cells
Sequence (P43220 24-463): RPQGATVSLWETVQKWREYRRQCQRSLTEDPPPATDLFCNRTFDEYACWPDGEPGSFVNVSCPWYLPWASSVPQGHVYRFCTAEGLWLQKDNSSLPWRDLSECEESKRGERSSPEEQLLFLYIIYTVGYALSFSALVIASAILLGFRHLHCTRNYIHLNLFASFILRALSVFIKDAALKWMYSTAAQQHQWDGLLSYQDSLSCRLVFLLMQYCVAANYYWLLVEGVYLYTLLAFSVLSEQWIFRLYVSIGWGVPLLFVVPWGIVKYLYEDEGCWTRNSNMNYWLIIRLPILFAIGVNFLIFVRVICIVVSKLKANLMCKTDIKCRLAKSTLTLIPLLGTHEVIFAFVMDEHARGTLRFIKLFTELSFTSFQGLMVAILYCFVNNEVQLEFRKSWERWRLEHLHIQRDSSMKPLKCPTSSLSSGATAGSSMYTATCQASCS
Experiment: In vitro Human GLP-1 R agonist activity (cyclic AMP determination) in CHO/human GLP1R cells
Format: cell-based
Conditions: 10 μM test compound
REPORTED PROPERTY: Human GLP-1 R activity (cAMP release), % activity with respect to control (%)
Enter your answer as a number in %; do not include the unit.

Field: example entries. Status: answers known.
>>> assay_value("CCc1cc(OC)ccc1-c1ccc(CC(NC(=O)[C@H](CC(=O)O)NC(=O)[C@H](CO)NC(=O)[C@@H](NC(=O)C(C)(Cc2ccccc2F)NC(=O)[C@@H](NC(=O)CNC(=O)C(CCC#N)NC(=O)C(C)(C)NC(=O)[C@H](Cc2c[nH]cn2)NC(=O)OC)[C@@H](C)O)[C@@H](C)O)C(=O)NC(CCCc2ccccc2)C(N)=O)cc1 (single isomer, unassigned)")
98
>>> assay_value("CCc1cc(OC)ccc1-c1ccc(CC(CNC(CCCc2ccccc2)C(N)=O)NC[C@H](CC(=O)O)NC(=O)[C@H](CO)NC(=O)[C@@H](NC(=O)C(C)(Cc2ccccc2F)NC(=O)[C@@H](NC(=O)CNC(=O)[C@H](CCC(N)=O)NC(=O)C(C)(C)NC(=O)[C@H](Cc2c[nH]cn2)NC(=O)OC)[C@@H](C)O)[C@@H](C)O)cc1 (single isomer, unassigned)")
97
>>> assay_value("CCc1cc(OC)ccc1-c1ccc(CC(NC(=O)[C@H](CC(=O)O)NC(=O)[C@H](CO)NC(=O)[C@@H](NC(=O)[C@H](Cc2ccccc2)NC(=O)[C@@H](NC(=O)CNC(=O)[C@H](CCC(N)=O)NC(=O)[C@H](C)NC(=O)[C@@H](N)Cc2c[nH]cn2)[C@@H](C)O)[C@@H](C)O)C(=O)NC(CCCc2ccc(Cl)cc2C)C(N)=O)cc1 (single isomer, unassigned)")
99
>>> assay_value("CCc1cc(OC)ccc1-c1ccc(CC(NC(=O)[C@H](CC(=O)O)NC(=O)[C@H](CO)NC(=O)[C@@H](NC(=O)C(C)(Cc2ccccc2F)NC(=O)[C@@H](NC(=O)CNC(=O)C(CCC#N)NC(=O)C(C)(C)NC(=O)[C@H](Cc2c[nH]cn2)NC(C)=O)[C@@H](C)O)[C@@H](C)O)C(=O)NC(CCCc2ccccc2)C(N)=O)cc1 (single isomer, unassigned)")
99
>>> assay_value("CCc1cc(OC)ccc1-c1ccc(CC(NC(=O)[C@H](CC(=O)O)NC(=O)[C@H](CO)NC(=O)[C@@H](NC(=O)[C@H](Cc2ccccc2)NC(=O)[C@@H](NC(=O)CNC(=O)[C@H](CCC(N)=O)NC(=O)[C@H](CO)NC(=O)[C@@H](N)Cc2c[nH]cn2)[C@@H](C)O)[C@@H](C)O)C(=O)NC(CCCc2ccccc2C(F)(F)F)C(N)=O)cc1 (single isomer, unassigned)")
99
>>> assay_value("CCc1cc(OC)ccc1-c1ccc(CC(NC(=O)[C@H](CC(=O)O)NC(=O)[C@H](CO)NC(=O)[C@@H](NC(=O)C(C)(Cc2ccccc2F)NC(=O)[C@@H](NC(=O)CNC(=O)[C@H](CC(C(F)(F)F)C(F)(F)F)NC(=O)C(C)(C)NC(=O)[C@H](Cc2c[nH]cn2)NC(C)=O)[C@@H](C)O)[C@@H](C)O)C(=O)NC(CCCc2ccccc2)C(N)=O)cc1 (single isomer, unassigned)")
99

I would be grateful if you could share the reported Human GLP-1 R activity (cAMP release), % activity with respect to control for CCc1cc(OC)ccc1-c1ccc(CC(NC(=O)[C@H](CC(=O)O)NC(=O)[C@H](CO)NC(=O)[C@@H](NC(=O)C(C)(Cc2ccccc2)NC(=O)[C@@H](NC(=O)CNC(=O)[C@H](CC(C(F)(F)F)C(F)(F)F)NC(=O)C(C)(C)NC(=O)[C@@H](N)Cc2c[nH]cn2)[C@@H](C)O)[C@@H](C)O)C(=O)NC(CCCc2ccccc2)C(N)=O)cc1 (single isomer, unassigned) .
99

I would be grateful if you could share the reported Human GLP-1 R activity (cAMP release), % activity with respect to control for CCc1cc(OC)ccc1-c1ccc(CC(C(=O)N(C)C(CCCc2ccccc2)C(N)=O)N(C)C(=O)[C@H](CC(=O)O)N(C)C(=O)[C@H](CO)NC(=O)[C@@H](NC(=O)C(C)(Cc2ccccc2F)NC(=O)[C@@H](NC(=O)CNC(=O)C(CCC#N)NC(=O)C(C)(C)NC(=O)[C@@H](N)Cc2c[nH]cn2)[C@H](C)O)[C@H](C)O)cc1 (single isomer, unassigned) .
99
